# tgt: basic fibroblast growth factor (bFGF) (UniProt P09038 P09038:135-288)
# Sequence (P09038 135-288, one chain of several): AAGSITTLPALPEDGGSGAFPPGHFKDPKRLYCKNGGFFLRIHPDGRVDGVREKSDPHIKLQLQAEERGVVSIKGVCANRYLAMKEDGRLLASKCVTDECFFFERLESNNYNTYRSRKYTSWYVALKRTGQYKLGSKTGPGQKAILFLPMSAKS
# assay remarks: filter
# condition context: tags: Bachem California, 18 kDa, 154 aa; 125I-labeled for receptor assays; 6-base G-C stem with blunt end
parameter measured: Kd (nM)
Answers are plain numbers, in nM.

Could you share which Kd value was measured for GCGGGGCTACGTACCGGGGCTTTGTAAAACCCCGC (ssDNA) [M225t3] ?
0.7
